Origin of measurements: paper PMC9019904

Can you tell me 2. Nuclear Area (% Control) for the items I'm about to list?
# Tested on: BV2 (mouse microglia) cell line
# procedure-summary: pHrodo-myelin phagocytosis/cell viability high content imaging assay: viability (cell count, nuclear area, nuclear intensity)
# test-context: BV2 cells, 10 uM compound, 48 hours treatment
Numbers only, in % Control.

Sample answers from the record:
Query :: Given the entry CCN(C)C(=O)Oc1cccc([C@H](C)N(C)C)c1 [UNC10303091A] , report its measured 2. Nuclear Area (% Control).
Result :: 103.4

Query :: Any idea what 2. Nuclear Area (% Control) was measured for Clc1ccc(N/N=C(\c2ccccc2)c2ccccn2)nc1 [UNC3735A] ?
Result :: 119.6

Query :: # lookup: 2. Nuclear Area (% Control) of CN(CCOc1ccc(CC2SC(=O)NC2=O)cc1)c1ccccn1 (centres unmarked) [UNC10121399D]
Result :: 102.9

Query :: // 2. Nuclear Area (% Control) lookup, key: Cc1cc(C)nc(NC(=S)N2CCN(c3ccc(C(F)(F)F)cn3)CC2)c1 [UNC10302906A]
Result :: 107.2

Query :: State the recorded 2. Nuclear Area (% Control) for this entry: CC(C)(C)c1cnc(CSc2cnc(NC(=O)C3CCNCC3)s2)o1 [UNC10302585A]
Result :: 123.4

Query :: Consider the molecule shown here: C[C@H]1Oc2cc(cnc2N)-c2c(nn(C)c2C#N)CN(C)C(=O)c2ccc(F)cc21 [UNC10244898A] What is its recorded 2. Nuclear Area (% Control)?
Result :: 102.7

Please state, for each entry, its recorded 2. Nuclear Area (% Control).
1. CC(=O)N1CCC(NC(=O)NC23CC4CC(CC(C4)C2)C3)CC1 [UNC10302683A]
2. CCCCc1nc(Cl)c(CO)n1Cc1ccc(-c2ccccc2-c2nn[nH]n2)cc1 [UNC10121212D]

Result ::
1: 103.6; 2: 103.1

---

# Test system: BV2 (mouse microglia) cell line
# procedure-summary: pHrodo-myelin phagocytosis/cell viability high content imaging assay: viability (cell count, nuclear area, nuclear intensity)
# test-context: BV2; compound 10 uM; 48 hours treatment
recorded-endpoint: 1. Cell count (% control)
One number for each entry, in % control.

Known results for compounds:
Query :: Data request, read-out 1. Cell count (% control), for CC[C@H](Nc1ncnc2[nH]cnc12)c1nc2cccc(F)c2c(=O)n1-c1ccccc1
Result :: 17.2

Query :: Looking for the measured 1. Cell count (% control) of COC(=O)C1=C(C)NC2=C(C(=O)c3ccccc32)C1c1ccccc1OCc1ccccc1F (centres unmarked) [UNC10303111A] , can you help?
Result :: 84.0

Query :: # lookup: 1. Cell count (% control) of Cc1ccccc1C(=O)Nc1ccc(C(=O)N2CCCC(O)c3cc(Cl)ccc32)c(C)c1 (centres unmarked) [UNC10302860A]
Result :: 118.5

Query :: Requested read-out: 1. Cell count (% control). Entry: CCOC(=O)N1CCC(Nc2c(NCCN3CCN(c4cccc(C(F)(F)F)c4)CC3)c(=O)c2=O)CC1 [UNC10302706A]
Result :: 117.8

Quick request: 1. Cell count (% control) for each listed item, please.
1. CSc1ccc2c(c1)c(CCN)c(C)n2Cc1ccc(Cl)cc1Cl.Cl [UNC10302700A]
2. Oc1cc(CNC(=S)/C=C/c2cc(O)c(O)c(Br)c2)cc(O)c1O [UNC10302699A]
3. CCCCCCOc1cc2c(cc1N(C)c1ncc(C(=O)O)cn1)C(C)(C)CCC2(C)C [UNC10302707A]
4. Nc1ncnc2c1nc(Br)n2[C@@H]1O[C@@H]2COP(=O)([O-])O[C@H]2[C@H]1O.[Na+] [UNC10302698A]
5. Cc1cc(Nc2nc(N[C@@H](C)c3ncc(F)cn3)ncc2Cl)n[nH]1 [UNC10302859A]
6. CC1(COc2ccc3c(c2)ncn3-c2ccc3cccc(N4CCC(N)CC4)c3n2)COC1 [UNC10223898A]

Result ::
22.6
17.7
135.9
97.0
53.2
26.6

For every item below, please supply its 1. Cell count (% control).
1. CC(C)CCN1c2nc(Nc3cc(F)c(O)c(F)c3)ncc2N(C)C(=O)C1C (centres unmarked) [UNC10302870A]
2. CCCN(CC1CC1)c1nc(C)nc(Nc2c(Cl)cc(Cl)cc2Cl)c1Cl.Cl [UNC10303155A]
3. CCOC(=O)c1cccc(CNc2ccc(N(C)C(=O)Nc3ccccc3)cc2)c1 [UNC10302705A]
4. Cc1cc(C)nc(NS(=O)(=O)c2ccc(NC(=O)NC(=O)c3ccc(Cl)cc3Cl)cc2)n1 [UNC10303168A]

Result ::
15.1
40.3
77.7
124.0

---

Please respond with reported 3. Nuclear DNA Intensity (% control) for every item in the list.
# System: BV2 (mouse microglia) cell line
# procedure-summary: pHrodo-myelin phagocytosis/cell viability high content imaging assay: viability (cell count, nuclear area, nuclear intensity)
# test-context: BV2 cells, 10 uM compound, 48 hours treatment
Could you write the number and then its unit?

Some solved entries appear below for comparison.
Query :: Value wanted: 3. Nuclear DNA Intensity (% control) (BV2 (mouse microglia) cell line) of entry CCOC(=O)c1sc(NC(=O)c2ccco2)c(SC#N)c1C [UNC10302907A]
Result :: 107.1 % control

Query :: Record lookup: for BV2 (mouse microglia) cell line, what 3. Nuclear DNA Intensity (% control) belongs to O=C(Nc1ccc2[nH]nc(-c3ccncc3)c2c1)[C@@H]1CCN(CC(=O)N2CCN(c3ccc(-c4ncccn4)cc3)CC2)C1 [UNC10302854A] ?
Result :: 111.9 % control

# map each compound to its 3. Nuclear DNA Intensity (% control)
1. CC(C)(C)c1cnc(CSc2cnc(NC(=O)C3CCNCC3)s2)o1 [UNC10302585A]
2. O=C(/C=C/c1ccco1)Nc1ncc(Cc2ccccc2)s1 [UNC10302883A]
3. O=C(NNc1nc2cc(F)ccc2n2cccc12)c1cnccn1 [UNC10302850A]

Result ::
1: 85.3 % control; 2: 118.7 % control; 3: 94.0 % control

Batch: 3. Nuclear DNA Intensity (% control) for all items listed.
1. CC(C)(O)c1coc(S(=O)(=O)[N-]C(=O)Nc2c3c(cc4c2CCC4)CCC3)c1.[Na+] [UNC10302861A]
2. CCCCc1nc(Cl)c(CO)n1Cc1ccc(-c2ccccc2-c2nn[nH]n2)cc1 [UNC10121212D]
3. c1ccc(CNc2nc(NCc3ccccc3)c3ccccc3n2)cc1 [UNC10302879A]
4. C[C@@H](Oc1cc(-c2cnn(C3CCNCC3)c2)cnc1N)c1c(Cl)ccc(F)c1Cl [UNC10220526A]
5. CCC(=O)N1CCC(NC(=O)Nc2ccc(OC(F)(F)F)cc2)CC1 [UNC10302681A]
6. O=S(=O)(c1ccccc1)N(CC(F)(F)F)c1ccc(C(O)(C(F)(F)F)C(F)(F)F)cc1 [UNC10302875A]
7. Cl.O=C(O)Cc1cccc(OCCCN(Cc2cccc(C(F)(F)F)c2Cl)CC(c2ccccc2)c2ccccc2)c1 [UNC10302974A]
8. O=C(N/N=C/c1ccc(Cl)cc1)c1ccccc1 [UNC10302877A]

Result ::
["106.4 % control", "105.8 % control", "65.0 % control", "15.3 % control", "108.5 % control", "110.7 % control", "102.2 % control", "107.1 % control"]

Please go through the list and note 3. Nuclear DNA Intensity (% control) for each compound.
1. C=C(c1ccc(C(=O)O)cc1)c1cc2c(cc1C)C(C)(C)CCC2(C)C [UNC10302949A]
2. CCC(=O)O[C@]1(C(=O)SCF)[C@H](C)C[C@H]2[C@@H]3C[C@H](F)C4=CC(=O)C=C[C@]4(C)[C@@]3(F)[C@@H](O)C[C@@]21C [UNC10121416A]
3. CC[C@H](C)[C@H](N)C(=O)NCCN1CCOCC1.Cl.Cl [UNC10303094A]

Result ::
["95.6 % control", "113.9 % control", "103.6 % control"]

Query :: Request: 3. Nuclear DNA Intensity (% control), test system BV2 (mouse microglia) cell line, entry c1ccc(-c2nn3c(c2-c2ccnc4cc(OCCN5CCOCC5)ccc24)CCC3)nc1 [UNC10302849A]
Result :: 98.8 % control

---

# System: BV2 (mouse microglia) cell line
# procedure-summary: pHrodo-myelin phagocytosis/cell viability high content imaging assay: viability (cell count, nuclear area, nuclear intensity)
# test-context: BV2; compound 10 uM; 48 hours treatment
recorded-endpoint: 1. Cell count (% control)
Answers are plain numbers, in % control.

Answered cases to consult:
Query :: Please tell me: 1. Cell count (% control) of NC(=O)[C@@H]1CC[C@H](c2ccc(OCc3ccccc3F)cc2)N1 [UNC10303186A] , system BV2 (mouse microglia) cell line?
Result :: 138.2

Query :: Form entry - test system: BV2 (mouse microglia) cell line; read-out: 1. Cell count (% control); molecule: CN1CCN(CCCN2c3ccccc3Sc3ccc(C(F)(F)F)cc32)CC1.Cl.Cl [UNC10101287D]
Result :: 26.5

Query :: Find 1. Cell count (% control) (BV2 (mouse microglia) cell line) for the entry CC(=O)c1nc([C@@H](O)[C@H](O)[C@H](O)CO)c[nH]1 [UNC10303188A]
Result :: 136.1

Query :: I'm curious: which 1. Cell count (% control) was measured for C=CC[N+]1(C2CC3C4CCC5CC(O)C(N6CCOCC6)CC5(C)C4CCC3(C)C2OC(C)=O)CCCC1.[Br-] (stereo not drawn) [UNC10302696A] tested on BV2 (mouse microglia) cell line?
Result :: 144.5

Query :: Value wanted: 1. Cell count (% control) (BV2 (mouse microglia) cell line) of entry C[C@H](NC(=O)c1sccc1OCc1ccc(Cl)cc1)c1ccccc1 [UNC10302704A]
Result :: 95.5

Query :: Observed 1. Cell count (% control) on BV2 (mouse microglia) cell line for O=C(O)CCCc1nc(-c2ccc(Cl)c(Cl)c2)c(-c2ccccc2)o1 [UNC8366A] , please.
Result :: 118.0

Query :: // map C=C1C(=O)[C@]23[C@H](O)[C@H]1CC[C@H]2[C@@]12CO[C@]3(O)[C@@H](O)[C@@H]1C(C)(C)CC[C@@H]2O [UNC10302873A] to recorded 1. Cell count (% control) (system: BV2 (mouse microglia) cell line)
Result :: 12.1

Query :: // lookup 1. Cell count (% control) | system=BV2 (mouse microglia) cell line | key= CC(C)(C)c1cc(NC(=O)Nc2ccc(-c3cn4c(n3)sc3cc(OCCN5CCOCC5)ccc34)cc2)no1 [UNC10220373A]
Result :: 110.4

Query :: Value wanted: 1. Cell count (% control) (BV2 (mouse microglia) cell line) of entry CCCCCCCCCCCCCCCCOCC(COCC(F)(F)F)OP(=O)([O-])OC.[Li+] (stereo not drawn) [UNC8441A]
Result :: 80.6

Query :: GET /values?readout=1. Cell count (% control)&system=BV2 (mouse microglia) cell line&item= CC1(C)CCC(CN2CCN(c3ccc(C(=O)NS(=O)(=O)c4ccc(NCC5CCOCC5)c([N+](=O)[O-])c4)c(Oc4cnc5[nH]ccc5c4)c3)CC2)=C(c2ccc(Cl)cc2)C1 [UNC10302836A]
Result :: 115.0

// batch mode: one 1. Cell count (% control) value per listed entry
1. N[C@@H](CC(=O)Nc1ccc(Oc2cc(F)c(F)cc2Br)cc1)C(=O)O [UNC10303167A]
2. O=C(Cn1cc(S(=O)(=O)N2CCCC2)ccc1=O)c1ccc(-c2cccc(C(F)(F)F)c2)cc1 [UNC8367A, reference compound]
3. O=C(NC1CCNCC1)c1[nH]ncc1NC(=O)c1c(Cl)cccc1Cl [UNC10302839A]
4. C=Cc1c(C)c2cc3nc(cc4[nH]c(cc5nc(cc1[nH]2)C(C)=C5CCC(=O)O)c(CCC(=O)OC)c4C)[C@@]1(C)C3=CC=C(C(=O)OC)[C@H]1C(=O)OC [UNC10303159A]
5. Cc1ccc(F)c(NC(=O)Nc2ccc(-c3cccc4[nH]nc(N)c34)cc2)c1 [UNC10302874A]

Result ::
1. 64.5
2. 56.7
3. 4.8
4. 114.7
5. 24.4
